Each recorded value in this set is attributed to patent EP1068184B1.

molecular target: serotonin transporter (Rattus norvegicus); construct: frontal cortical membranes prepared from male Sprague-Dawley rats; from tissue; host or cells: rat frontal cortex membranes; assay: serotonin transporter affinity, 3H-paroxetine binding to frontal cortical membranes; parameters: species or system male Sprague-Dawley rats; conditions: 3H-paroxetine 0.1 nM, rat frontal cortical membranes; read-out: ST (Ki)
Sequence (P31652 whole entry): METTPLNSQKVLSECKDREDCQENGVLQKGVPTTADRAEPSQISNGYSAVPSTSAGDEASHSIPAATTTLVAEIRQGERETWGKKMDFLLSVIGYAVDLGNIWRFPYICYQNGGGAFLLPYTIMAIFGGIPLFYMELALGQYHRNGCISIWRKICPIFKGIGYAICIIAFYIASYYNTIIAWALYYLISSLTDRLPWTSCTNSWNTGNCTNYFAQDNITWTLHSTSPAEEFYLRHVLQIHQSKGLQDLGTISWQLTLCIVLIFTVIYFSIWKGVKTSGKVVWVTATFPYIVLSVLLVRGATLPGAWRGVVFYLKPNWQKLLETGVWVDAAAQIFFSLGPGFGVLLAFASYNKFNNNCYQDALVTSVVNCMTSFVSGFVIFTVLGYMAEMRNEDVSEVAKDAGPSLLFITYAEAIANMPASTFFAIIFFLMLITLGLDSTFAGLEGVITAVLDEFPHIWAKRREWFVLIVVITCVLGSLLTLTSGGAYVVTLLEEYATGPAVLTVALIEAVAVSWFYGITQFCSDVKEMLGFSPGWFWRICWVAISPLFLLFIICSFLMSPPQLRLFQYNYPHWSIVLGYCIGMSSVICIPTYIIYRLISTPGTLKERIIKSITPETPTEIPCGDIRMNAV
Recorded pKi for the following compounds
Quick note: pKi values are minus log10 of concentrations in mol/L.

Examples from the recorded data:
Fc1ccc2[nH]cc([C@H]3CC[C@@H](NCCOc4cccc5[nH]ccc45)CC3)c2c1: 7.59
COc1ccccc1OCCNCC1CCC(c2c[nH]c3ccc(C#N)cc23)CC1 (centres unmarked) [Example 10b]: 8.82
Fc1ccc2[nH]cc([C@H]3CC[C@H](NCCOc4cc(Cl)cc5[nH]cnc45)CC3)c2c1: 8.80
COc1cc(F)ccc1OCCN[C@H]1CC[C@@H](c2c[nH]c3ccc(F)cc32)CC1: 8.75

Next compound, please.
### Prompt Quick one: pKi for "Fc1ccc2[nH]cc([C@H]3CC[C@H](NCCOc4cccc5[nH]ccc45)CC3)c2c1" ?
### Response 8.60
